Origin of the recorded values: patent US20260234269A1

Measured on: T1, Human Galectin-3 protein (Acro Biosystems, GA3-H5129) (human, UniProt P17931 2-250)
T1 construct: Bought protein; also called hGal3; Gal3; not shown: linker-spaced 6-histidine tag
Method summary: SPR Biacore T200, antibody captured, Galectin-3 analyte
Measured Kd, listed per entry.
Test readout: Kd (nM)

[[record]]
binder = "20H5.A3 (antibody, V domains shown, murine antibody) VH: QIQLVQSGPELKKPGESVKISCKASGYAFTTYGMSWVQQAPGKGLKWMGWVNTYSGVPTCADDFKGRFAFSLETSASTAYLQINNLRNEDTATYFCARGPYAMDYWGQGTSVTVSS VL: DIQMTQTTSSLSASLGDRVTINCSASQDISNYLNWYQQKPDGTVKLLIYYTSSLLSGVPSRFSGSGSGTDYSLTISNLEPEDIATYFCQQYSKLPYTFGSGTHLEIK"
test_readout = "Kd"
value_prefix = "="
experimental_value = 3.95

[[record]]
binder = "19B5.2E6 (antibody, V domains shown, murine antibody) VH: QIQLVQSGPELKKPGETVKISCKASGYTFTTYAMSWVKQAPGKGLKWMGWINTYSGVPTYADDLKGRFAFSLETSASTAYLQINNLKNEDTATYFCARGPYAMDYWGQGTSVTVSS VL: DIQMTQTTSSLSASLGDRVTISCSASQGINNYLNWYQQKPDGTVKLLIYYASSLHSGVPSRFSGSGSGTDYSLTISNLEPEDIATYYCQQYSQVPYTFGSGTKLEIK"
test_readout = "Kd"
value_prefix = "<"
experimental_value = 1

[[record]]
binder = "23H9.2E4 (antibody, V domains shown, murine antibody) VH: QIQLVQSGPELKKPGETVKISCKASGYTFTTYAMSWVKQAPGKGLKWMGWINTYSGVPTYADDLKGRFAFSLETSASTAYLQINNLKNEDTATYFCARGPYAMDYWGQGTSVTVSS VL: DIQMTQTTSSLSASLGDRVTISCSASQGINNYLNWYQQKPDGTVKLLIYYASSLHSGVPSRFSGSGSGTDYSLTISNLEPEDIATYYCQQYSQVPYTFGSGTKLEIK"
test_readout = "Kd"
value_prefix = "="
experimental_value = 4.26

